target: T1, YU-2 gp140 (HIV-1 YU2, UniProt P35961 32-670); test: SPR, gp140 on chip, IgG injected
T1 construct: domain: gp140; also called YU2 gp140 trimer

Binder | koff
8ANC131 (antibody, V domains shown, also called 8ANC131HC; 8ANC131KC) VH: QGQLVQSGGGLKKPGTSVTISCLASEYTFNEFVIHWIRQAPGQGPLWLGLIKRSGRLMTAYNFQDRLRLRRDRSTGTVFMELRGLRPDDTAVYYCARDGLGEVAPDYRYGIDVWGQGSTVIVTA VL: EIVLTQSPATLSLSPGERATLSCRASQGLNFVVWYQQKRGQAPRLLIHAPSGRAPGVPDRFSARGSGTEFSLVISSVEPDDFAIYYCQEYSSTPYNFGPGTRVDRKR | 0.00109 s⁻¹
3BNC117 (antibody, V domains shown, also called 3BNC117HC; 3bnc117kc) VH: QVQLLQSGAAVTKPGASVRVSCEASGYNIRDYFIHWWRQAPGQGLQWVGWINPKTGQPNNPRQFQGRVSLTRHASWDFDTFSFYMDLKALRSDDTAVYFCARQRSDYWDFDVWGSGTQVTVSSASTKG VL: DIQMTQSPSSLSASVGDTVTITCQANGYLNWYQQRRGKAPKLLIYDGSKLERGVPSRFSGRRWGQEYNLTINNLQPEDIATYFCQVYEFVVPGTRLDLKRTVAAPSVFIFPPSD | 0.000199 s⁻¹
3BNC55 (antibody, V domains shown, also called 3BNC55HC; 3BNC55KC) VH: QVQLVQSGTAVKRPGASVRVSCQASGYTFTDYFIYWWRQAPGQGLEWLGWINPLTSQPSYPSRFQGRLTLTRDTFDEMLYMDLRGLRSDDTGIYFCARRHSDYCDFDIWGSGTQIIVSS VL: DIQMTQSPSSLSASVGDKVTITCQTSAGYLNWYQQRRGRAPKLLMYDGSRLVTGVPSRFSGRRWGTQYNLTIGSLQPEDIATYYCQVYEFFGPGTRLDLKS | 0.000755 s⁻¹
